System: J774A.1 (Mouse BALB/c monocyte macrophage cell line) cells
Assay: LPS-induced TNF-α secretion inhibition in J774A.1 cells
Type: cell-based
Settings: J774.A1, 1 μM compound, graded compared to taurodeoxycholic acid (positive control), read-out: TNF-α production inhibition grade
READOUT: inhibition at 1 µM

Examples with answers:
STRUCTURE NOTATION | inhibition at 1 µM
C[C@H](CCC(=O)N[C@H](Cc1ccccc1)CS(=O)(=O)O)[C@H]1CC[C@H]2[C@@H]3CC[C@@H]4C[C@H](O)CC[C@]4(C)[C@H]3C[C@H](O)[C@]12C | < 20%
C[C@H](CCC(=O)N[C@H](CO)CS(=O)(=O)O)[C@H]1CC[C@H]2[C@@H]3[C@H](O)C[C@@H]4C[C@H](O)CC[C@]4(C)[C@H]3C[C@H](O)[C@]12C | < 20%
CC[C@H]1[C@@H](O)[C@@H]2[C@H](CC[C@]3(C)[C@@H]([C@H](C)CCC(=O)N[C@H](CO)CS(=O)(=O)O)CC[C@@H]23)[C@@]2(C)CC[C@@H](O)C[C@@H]12 | 20 to 50%
CC[C@H]1[C@@H](O)[C@@H]2[C@H](C[C@H](O)[C@]3(C)[C@@H]([C@H](C)CCC(=O)N[C@@H](CS(=O)(=O)O)c4ccccc4)CC[C@@H]23)[C@@]2(C)CC[C@@H](O)C[C@@H]12 | < 20%
CC(C)[C@H](CS(=O)(=O)O)NC(=O)CC[C@@H](C)[C@H]1CC[C@H]2[C@@H]3[C@H](O)C[C@@H]4C[C@H](O)CC[C@]4(C)[C@H]3C[C@H](O)[C@]12C | < 20%

Give inhibition at 1 µM for all compounds that follow.
1. C[C@H](CCC(=O)N1CCN(CCS(=O)(=O)O)CC1)[C@H]1CC[C@H]2[C@@H]3CC[C@@H]4C[C@H](O)CC[C@]4(C)[C@H]3C[C@H](O)[C@]12C
2. CC[C@H]1[C@@H](O)[C@@H]2[C@H](CC[C@]3(C)[C@@H]([C@H](C)CCC(=O)NC4(CS(=O)(=O)O)CC4)CC[C@@H]23)[C@@]2(C)CC[C@@H](O)C[C@@H]12

*A*
1: > 100%; 2: < 20%
